Each recorded value in this set is attributed to the supplement of paper PMC10567573.

B1: WEE1 (parent)
chain: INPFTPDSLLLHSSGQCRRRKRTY

Variants of: B1
Assay Details: protein stability index of a GFP-peptide fusion (GPS, HEK-293T) (PSI 1-6); higher = more stable;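 further: lentivirally expressed fusions sorted by FACS into six bins by GFP to DsRed ratio, PSI derived from sequencing read proportions per bin multiplied by bin number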
Run Conditions: c terminus: a fixed tail appended
Given measured protein stability index, output true (1) if it is greater than or equal to 3 and false (0) if not.

INPFTPDSLLLHSWGQCRRRKRTY [S14W]    false (0)
INPFTPDSLLLHSSGQCRRRSRTY [K21S]    true (1)

Q: Form field: protein stability index at least 3? Entry: INPFTPDSLLLHSSGQMRRRKRTY [C17M]
Ans: true (1)

Q: Form field: protein stability index at least 3? Entry: INPFGPDSLLLHSSGQCRRRKRTY [T5G]
Ans: true (1)

Q: Form field: protein stability index at least 3? Entry: INPFTPDELLLHSSGQCRRRKRTY [S8E]
Ans: true (1)
